PROTOCOL_NOTES: inhibitors of TNFa-induced NFkB p65 translocation, primary screen, imaging, HUVEC, MLSMR starter and 10KST1 sets (AID 438);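 further: compound added about 3h40 before a 20 min TNFalpha stimulation; signal is the nuclear over cytoplasmic p65 intensity ratio per well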
CONDITION_LABEL: HUVEC TNFa-induced p65 nuclear translocation; at 2 µM, hits give high values, 0% TNFa-plus-vehicle, 100% no-TNFa wells
MEASURED_PROPERTY: inhibition (%)
Write it as a number; the unit % goes unstated.

query: // returns reported inhibition for input `CCOC(=O)C1CCN(C(=O)CN(Cc2ccccc2)S(C)(=O)=O)CC1`
result: 2.3

query: Please report the recorded inhibition for `COCCN(CCOC)C(=O)c1sc2nc(-c3ccccc3)cn2c1C` .
result: -10.7

query: Entry `O=C(Nc1ccccc1-c1nc2ccccc2o1)c1ccc2c(c1)OCCO2` : reported inhibition = ?
result: -7.2

query: I would be grateful if you could share the reported inhibition for CCCC1C(C#N)=C(N)Oc2n[nH]c(C(C)(C)C)c21 (stereo not drawn) .
result: -6.9

query: So what does the record say about inhibition for `CCOc1ccc(NCCC(=O)c2ccc3c(c2)OCO3)cc1` ?
result: -5.4

query: Looking for the measured inhibition of `COc1ccc(OC)c(N2Cc3cc(C)c(C)cc3C2)c1` , can you help?
result: -3.1

query: GET /values?readout=inhibition&item= `CCOC(=O)c1ccc(NC(=O)N2CCN(Cc3cccc(F)c3)CC2)cc1`
result: -1.4

query: I would be grateful if you could share the reported inhibition for `c1ccc(-c2cn3c4c(sc3n2)CCCC4)cc1` .
result: -4.8

query: Return reported inhibition; argument: `Cc1ccc(-c2cc(C(=O)NCc3ccc4c(c3)OCO4)no2)cc1`
result: 0.3

query: Bench note: what inhibition did `CCCn1c(SCC(=O)NCc2ccco2)nc2c1c(=O)n(C)c(=O)n2C` show?
result: -9.2

query: Request the reported inhibition associated with c1cc(C(c2nnnn2C2CCCC2)N2CCOCC2)ccn1 (stereo not drawn)
result: -7.3

query: Look up inhibition for this molecule: `CCN(CC)CCOC(=O)c1cccc(OC)c1`
result: 4.3

query: I have this molecule here, `CSCC[C@@H](Nc1nc(-c2ccccc2)nc2c1oc1ccccc12)C(=O)O` , and I need its recorded inhibition.
result: 1.9

query: Would you kindly share the measured inhibition for Cc1ccc(CC2SC(=O)NC2=O)cc1Cl (stereo not drawn) ?
result: 10.4

query: Which inhibition is reported for this molecule? `Cc1ccc(-c2nc3cc(NC(=O)C(C)C)ccc3o2)cc1`
result: -6.7

query: What does the record list as inhibition for `CC(C)(C)c1ccc(C(=O)N2CCC(C(=O)NCc3ccncc3)CC2)cc1` ?
result: -5.2

query: Reported inhibition for `c1ccc(-c2cc(-c3nc(-c4ccccn4)no3)c3ccccc3n2)cc1` : what is it?
result: 7.6

query: Which value of inhibition has been reported for `COc1cccc(S(=O)(=O)Nc2cccnc2)c1` in the records?
result: -15.2

query: Find the recorded inhibition belonging to `Cc1oc2c(CN3CCCC3)c(O)ccc2c(=O)c1-c1ccccc1` and report it.
result: 3.8

query: Look up inhibition for this molecule: `Cc1cccc(OCc2nc(C#N)c(NCCN(C)C)o2)c1`
result: -2.9

query: Which inhibition is reported for this molecule? `COc1ccccc1-c1cc(C(=O)Nc2cc(C)nn2-c2ccccc2)no1`
result: -9.3

query: Report inhibition for CCCOc1ccc([C@@H]2C3CN(C(=O)OCC)CC=C3C(C#N)=C(N)C2(C#N)C#N)cc1OC (stereo partly drawn) please.
result: -23.3

query: Please give the measured inhibition for this molecule: `COCCNC(=O)c1ccc(CS(=O)(=O)c2ccc(OC)cc2)o1`
result: 4.1

query: Value lookup for inhibition; key = `CCCN(CCC)C(=O)C1CCN(c2cc(C)nc3c(-c4ccc(OC)c(OC)c4)c(C)nn23)CC1`
result: 6.6

query: Look up inhibition: `Cc1c(C#N)c(N)c(C(=O)c2ccccc2)n1Cc1ccccc1`
result: 0

query: Could you tell me which inhibition is on file for `O=S(=O)(c1ccc2c(c1)OCCO2)N(Cc1ccc(F)cc1)Cc1nnc(-c2cccs2)o1` ?
result: -21.4

query: # lookup: inhibition of `Cc1[nH]nc2c1C1(CCN(C(=O)c3ccccc3)CC1)C(C#N)=C(N)O2`
result: -17

query: Please give the measured inhibition for this molecule: `Cc1ccc(-c2nc(N)n(C(=O)c3cccnc3)n2)cc1`
result: 5.5

query: # get_value(readout='inhibition', item= `COc1ccc(NC(=O)CC2CCCCC2)cc1OC` )
result: -5.5

query: Requested field: inhibition. Item: `O=C(CCN1C(=O)c2ccccc2C1=O)Nc1ccc(F)cc1`
result: 4.9

query: Fill in: inhibition of `O=C(NCCCN1CCOCC1)c1cc(-c2ccc(Cl)cc2)on1` is ___
result: -1.8

query: Requested field: inhibition. Item: `COc1ccc(C/C(O)=C(\C#N)c2nc3ccccc3s2)cc1`
result: -1.1

query: Reported inhibition for `CN(C1CCCCC1)S(=O)(=O)c1ccc(S(=O)(=O)N2CCCC2)cc1` : what is it?
result: -10.5

query: I would be grateful if you could share the reported inhibition for `COc1ccc(NC(=O)N2CCC(O)(c3cccnc3)CC2)c(OC)c1` .
result: -6.3

query: Look at this molecule and give its reported inhibition. `CCn1c(SCC(=O)c2ccc(Cl)cc2)nnc1-c1ccoc1C`
result: 0.2

query: What inhibition value was documented for this molecule, `COc1ccc(OC)c(NC(=O)CS(=O)(=O)c2ccccc2)c1` ?
result: -0.6

query: Which inhibition is listed for CCOc1ccc(C(=O)N(Cc2ccc(N(C)C)cc2)C2CCS(=O)(=O)C2)cc1 (stereo not drawn) ?
result: -12.2

query: What measured inhibition goes with COc1ccccc1C(=O)NC(C)C(c1cccs1)N1CCN(C)CC1 (stereo not drawn) ?
result: -1.6

* * *

MEASURED_TARGET: Voltage-gated potassium channel subunit beta-2 (Rattus norvegicus)
PROTOCOL_NOTES: inhibitors of rat Kvbeta2 reductase activity – biochemical, NADPH fluorescence, primary screen (AID 622);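 further: slope of raw intensity against log time taken from 70 to 1610 s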
CONDITION_LABEL: recombinant KvBeta, 4-cyanobenzaldehyde reduction, at 10 µM, hits give high values
Mark -1 for fluorescence slope values under -0.4, and 1 for everything at or above.

query: Dear colleague, could you confirm whether `COc1ccc(C(=O)NC(=O)CSc2nnc(-c3ccco3)n2-c2ccccc2)cc1` has fluorescence slope at or above -0.4?
result: 1

query: Kindly determine if fluorescence slope recorded for `CN(C)C(=O)COc1ccc2cc(-c3ccccc3)c(=O)oc2c1` is above or exactly -0.4.
result: 1

query: Is fluorescence slope for `O=C(NC1CCCCCCC1)C1CCN(c2nc3ccccc3o2)CC1` at or above -0.4?
result: 1

query: Is fluorescence slope for `Cc1cc(NC(=O)CS(=O)(=O)c2cn(Cc3ccccc3Cl)c3ccccc23)no1` at or above -0.4?
result: 1

query: fluorescence slope >= -0.4 for `COCCn1c(=NC(=O)CSC(C)=O)sc2cc(F)ccc21` ?
result: 1

query: Could you please find out whether `CCOc1ccc(N(CC(=O)NC2CCCC2)S(=O)(=O)c2c(C)[nH]c(=O)[nH]c2=O)cc1` has fluorescence slope that meets -0.4 or exceeds it?
result: -1

query: Is fluorescence slope for `Cc1nc(SCC(=O)Nc2ccccc2C(F)(F)F)c2c(=O)n(C)c(=O)n(C)c2n1` at or above -0.4?
result: -1

query: Quick check: does `O=C(Nc1ccc(S(=O)(=O)N2CCc3ccccc32)cc1)c1ccc2c(c1)OCO2` have fluorescence slope greater than or equal to -0.4?
result: -1

query: Could you verify whether the entry `S=C(c1ccc(N2CCOCC2)cc1)N1CCCCC1` shows fluorescence slope of no less than -0.4?
result: -1

query: Answer whether fluorescence slope of `CCOc1ccccc1C(=O)NCCCn1ccnc1` is greater than or equal to -0.4.
result: -1

query: Threshold query (fluorescence slope >= -0.4) on `CC(C)(C)C1=Nn2c(nnc2-c2n[nH]c3c2CCC3)SC1`
result: -1

query: Could you verify whether the entry CC(=O)Nc1ccc(S(=O)(=O)N(C2=NCC(C)S2)c2ccccc2)cc1 (stereo not given) shows fluorescence slope of no less than -0.4?
result: -1

query: Does `CN(C)Cc1cn(CCC(=O)O)c2ccccc12` have a reported fluorescence slope of at least -0.4?
result: -1

query: Could you verify whether the entry O=C1CN(C(=O)CN2CCCC2)C(c2ccccc2)c2cc(Br)ccc2N1 (stereo not given) shows fluorescence slope of no less than -0.4?
result: -1

query: Hello, I need to know if `c1ccc(-c2nnc(SCc3nc4ccccc4[nH]3)o2)cc1` has measured fluorescence slope not below -0.4. Thanks!
result: 1

query: Tell me whether fluorescence slope is at least -0.4 here: `CCOc1ccc(C2C(C(=O)OC)=CN(CCOC)C=C2C(=O)OC)cc1`
result: 1

query: Assess whether reported fluorescence slope for Cc1ccc(-c2nnc(SCC(=O)N3CC(C)CC(C)C3)o2)cc1C (stereo not given) sits at -0.4 or higher.
result: -1

query: Given `COCCN(CCOC)C(=O)CCn1c(=O)oc2ccccc21` , state whether its fluorescence slope is at least -0.4.
result: -1

query: Is reported fluorescence slope greater than or equal to -0.4 here: Cc1ccc(CS(=O)(=O)CCC(=O)NCC2CCCO2)cc1 (stereo not given)
result: 1

query: State whether the measured fluorescence slope reaches -0.4, counting equality as reaching it, for `CCc1nccn1S(=O)(=O)c1ccc(C)c(C)c1`
result: -1

query: Quick check, fluorescence slope >= -0.4? `Cc1ccc(S(=O)(=O)NCCSc2nnnn2-c2ccc(C(N)=O)cc2)cc1`
result: -1

query: Hello, I need to know if `COCCCNC(=O)CCCn1c(=O)c2ccccc2n(CC(=O)Nc2c(C)cccc2C)c1=O` has measured fluorescence slope not below -0.4. Thanks!
result: -1

query: Check if fluorescence slope >= -0.4 (inclusive). Item: `CCc1nnc(NC(=O)CCC(=O)Nc2ccccc2)s1`
result: 1

query: Answer whether fluorescence slope of `CCCc1cn(S(=O)(=O)c2ccc(OC)cc2OC)nc1N` is greater than or equal to -0.4.
result: -1

query: Say whether `Cc1cc(N2CCN(C)CC2)nc(N2CCOCC2)n1` shows fluorescence slope of -0.4 or more.
result: -1

query: Would you say O=C1CCC(C(=O)N(Cc2ccco2)C2(C(=O)NC3CCCC3)CCCCC2)N1 (stereo not given) shows fluorescence slope at minimum -0.4?
result: -1

query: Please check the record `O=C(Cn1cnc2ccccc2c1=O)NCCC(=O)N1CCN(Cc2ccccc2)CC1` and state if its fluorescence slope is at or above -0.4.
result: -1

query: Could you verify whether the entry CCN1CCN(CCNC(=O)c2cn(C(C)c3ccccc3F)nn2)CC1 (stereo not given) shows fluorescence slope of no less than -0.4?
result: -1

query: Would you say `Cc1occc1-c1nnc(SCC(=O)N2CCOCC2)n1Cc1ccco1` shows fluorescence slope at minimum -0.4?
result: 1

query: Does `CCn1c(CSc2nnc(-c3cccnc3)n2-c2ccccc2C)nc2cc(C(=O)O)ccc21` have a reported fluorescence slope of at least -0.4?
result: -1

query: Can CC1CCCCC1NC(=O)COc1ccc(-n2cnnn2)cc1 (stereo not given) be said to have fluorescence slope at or above -0.4?
result: -1

query: Decide: fluorescence slope of `COc1cccc(NC(=O)N2CCC(N3CCCCC3)CC2)c1` >= -0.4?
result: -1

query: Determine whether this molecule has fluorescence slope no lower than -0.4: `COCCNC(=O)CN1CCN(Cc2cccc(Cl)c2)C1=O`
result: -1

query: Entry CC1(C)NC(=O)N(CC(O)COc2ccc(-c3ccccc3)cc2)C1=O (stereo not given) : is its fluorescence slope no less than -0.4?
result: -1

query: Confirm if fluorescence slope reported for the molecule O=S(=O)(NCC1CCCO1)c1cccc(C(F)(F)F)c1 (stereo not given) is -0.4 or above.
result: -1

query: Is fluorescence slope for `Cn1c(-c2ccccc2)c(CCO)c2ccccc21` at or above -0.4?
result: -1
